experiment: CCTE_Shafer_MEA_dev_mutual_information_norm: CCTE's Neural Network Formation Assay for Mutual Information Normalization, Shafer Lab (AID 2284091)
Activity calls are given as the source filed them. Rule for the calls: active = hit-call score of the fitted dose curve at least 0.9, where 1 is the maximum; inactive = score below 0.9.
Outcome codes: active, inactive

>  <smilesNotation>
CC=CC(F)(F)C(F)(F)C(F)(F)F

>  <label>
inactive

$$$$
>  <smilesNotation>
COC(F)(F)C(F)(C(F)(F)F)C(F)(F)F

>  <label>
inactive

$$$$
>  <smilesNotation>
c1ccc2c(c1)ccc1cc3c(ccc4ccccc43)cc12

>  <label>
inactive

$$$$
>  <smilesNotation>
CCOC(F)(F)C(F)(F)C(F)(F)C(F)(F)F

>  <label>
inactive

$$$$
>  <smilesNotation>
CN(C)c1ccc(C(=N)c2ccc(N(C)C)cc2)cc1

>  <label>
active

$$$$
>  <smilesNotation>
FC(F)=C(F)OC(F)(F)C(F)(F)C(F)(F)F

>  <label>
inactive

$$$$

---

biological target: Nuclear receptor subfamily 1 group I member 2 (Homo sapiens) (UniProt O75469); assay: ATG_PXR_TRANS: Attagene TRANS-FACTORIAL HepG2 Assay for human Pregnane X Receptor (PXR) (AID 2283008)
Sequence (O75469 whole entry, looked up): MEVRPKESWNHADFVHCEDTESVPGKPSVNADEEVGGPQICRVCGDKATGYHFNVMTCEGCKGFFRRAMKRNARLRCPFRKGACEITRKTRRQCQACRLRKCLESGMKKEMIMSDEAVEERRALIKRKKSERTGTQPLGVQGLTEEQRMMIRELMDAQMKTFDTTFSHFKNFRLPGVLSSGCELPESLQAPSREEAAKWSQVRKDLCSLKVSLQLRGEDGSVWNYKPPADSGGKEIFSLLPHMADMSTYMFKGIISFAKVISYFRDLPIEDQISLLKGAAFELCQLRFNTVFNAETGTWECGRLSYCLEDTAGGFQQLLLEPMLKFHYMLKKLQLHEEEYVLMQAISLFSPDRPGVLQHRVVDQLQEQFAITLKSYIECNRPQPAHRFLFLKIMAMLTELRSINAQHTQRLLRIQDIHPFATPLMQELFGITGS
Inconclusive results are not listed. Activity calls are given as the source filed them. Rule for the calls: active = hit-call score of the fitted dose curve at least 0.9, where 1 is the maximum; inconclusive = response in the unintended direction; inactive = score below 0.9.
Possible outcomes: active, inactive

>  <molecule>
CCCCC/C=C\C/C=C\CCCCCCCC(=O)OC

>  <label>
active

$$$$
>  <molecule>
Cc1ccc(N/N=c2\c(=O)cc/c(=N/Nc3ccc(S(=O)(=O)O)cc3)c2=O)c(C)c1

>  <label>
inactive

$$$$
>  <molecule>
O=C(C=Cc1ccccc1)OCc1ccccc1

>  <label>
inactive

$$$$
>  <molecule>
COc1cc(NC(=O)CC(C)=O)c(OC)cc1Cl

>  <label>
inactive

$$$$
>  <molecule>
Nc1ccc(Oc2ccc(N)c(N)c2)cc1

>  <label>
inactive

$$$$
>  <molecule>
CCN(CCC#N)c1ccc(N=Nc2c(Cl)cc([N+](=O)[O-])cc2Cl)cc1

>  <label>
active

$$$$
>  <molecule>
Cc1cccc(OCCOc2cccc(C)c2)c1

>  <label>
inactive

$$$$
>  <molecule>
CCC(Cc1ccccc1)(C(=O)c1ccc(N2CCOCC2)cc1)N(C)C (configuration not stated)

>  <label>
active

$$$$
>  <molecule>
CC(C)(C)c1n[nH]c(=O)n(N)c1=O

>  <label>
inactive

$$$$
>  <molecule>
CC=CC(F)(F)C(F)(F)C(F)(F)F

>  <label>
inactive

$$$$
>  <molecule>
CCCCCCCCCCCSCC(=O)O

>  <label>
inactive

$$$$
>  <molecule>
C=CCCCCCCCCC(=O)OCCCC

>  <label>
inactive

$$$$
>  <molecule>
C1=CCCC1

>  <label>
inactive

$$$$
>  <molecule>
C=C1C2CCC(C2)C1(C)C (configuration not stated)

>  <label>
active

$$$$
>  <molecule>
Cc1cc(C)c(C)c(O)c1

>  <label>
inactive

$$$$
>  <molecule>
O=C(O)c1cc2ccccc2nc1C(=O)O

>  <label>
inactive

$$$$
>  <molecule>
CCOC(=O)CC

>  <label>
inactive

$$$$
>  <molecule>
Cc1ccc([N+](=O)[O-])cc1S(=O)(=O)O

>  <label>
inactive

$$$$
>  <molecule>
CC1(C)O[C@@H]2C[C@H]3[C@@H]4C[C@H](F)C5=CC(=O)CC[C@]5(C)[C@H]4[C@@H](O)C[C@]3(C)[C@]2(C(=O)CO)O1

>  <label>
active

$$$$
>  <molecule>
CC1(C)O[C@@H]2C[C@H]3[C@@H]4C[C@H](F)C5=CC(=O)C=C[C@]5(C)[C@@]4(F)[C@@H](O)C[C@]3(C)[C@]2(C(=O)CO)O1

>  <label>
inactive

$$$$
>  <molecule>
Cc1ccc2oc(=O)ccc2c1

>  <label>
inactive

$$$$
>  <molecule>
[Cl][Bi]([Cl])([c]1ccccc1)([c]1ccccc1)[c]1ccccc1

>  <label>
inactive

$$$$
>  <molecule>
Cn1c(=O)[nH]c2ncn(C)c2c1=O

>  <label>
inactive

$$$$
>  <molecule>
CCC(C)OC(=O)c1ccc(O)cc1 (configuration not stated)

>  <label>
active

$$$$
>  <molecule>
Cc1cccc(C(=O)O)c1

>  <label>
inactive

$$$$
>  <molecule>
CCCc1ccc(OC)cc1

>  <label>
inactive

$$$$
>  <molecule>
C[Si](C)(CCCN)O[Si](C)(C)CCCN

>  <label>
inactive

$$$$

Attribution: PubChem BioAssay (EPA / NIEHS)
